System: pigweed
Assay: Test C pre-/postemergence test
Assay type: in vivo, Amaranthus retroflexus
Details: 125 g ai/ha, preemergence; scale 0 (no effect) to 100 (complete control)
assay.endpoint: Pigweed plant response rating
// print number alone

CC(C)c1cc[n+]([O-])c([S+]([O-])Cc2c(C(F)(F)F)nn(C)c2OC(F)F)c1 (stereo not drawn) [Compound 109] ... 100

## Task Which Pigweed plant response rating value is on record for CCc1cc[n+]([O-])c(S(=O)(=O)Cc2c(C(F)(F)F)nn(C)c2OC(F)F)c1 [Compound 102] ?
## Result 100

## Task Name the reported Pigweed plant response rating value associated with the compound Cn1nc(C(F)(F)F)c(C(Cl)S(=O)(=O)c2cccc[n+]2[O-])c1OC(F)F (stereo not drawn) [Compound 51]
## Result 100

---

Plant response rating, Crabgrass, Large listing for selected compounds.
System: crabgrass
Assay: Test A pre-/postemergence greenhouse test
Format: in vivo, Digitaria sanguinalis
Details: Preemergence, 500 g ai/ha; 0 to 100 scale where 0 is no effect and 100 is complete control

Worked cases, answers included:
Cc1cc([S+]([O-])Cc2c(C(F)(F)F)nn(C)c2OCC(F)(F)F)[n+]([O-])cc1Cl (stereo not drawn) ... 100
Cc1cc[n+]([O-])c(S(=O)(=O)Cc2c(C(F)(F)F)nn(CC(F)(F)F)c2Cl)c1 ... 90
CCn1nc(C(F)(F)F)c(C(C)S(=O)(=O)c2cccc[n+]2[O-])c1OCC(F)(F)F (stereo not drawn) ... 100

## Task Suppose we examine the compound CC(c1c(C(F)(F)F)nn(C)c1OCC(F)(F)F)S(=O)(=O)c1cccc[n+]1[O-] (racemic) ; what Plant response rating, Crabgrass, Large value has been reported?
## Result 100

## Task Returns the measured Plant response rating, Crabgrass, Large for the input compound. Input: Cn1nc(C(F)(F)F)c(C[S+]([O-])c2cccc[n+]2[O-])c1OCC(F)(F)C(F)(F)F (stereo not drawn)
## Result 100

---

Below is a list of entries, each paired with its recorded Corn plant response rating value.
Tested on: corn
Assay: Test C pre-/postemergence test
Assay type: in vivo, Zea mays
Conditions: preemergence, 250 g ai/ha; scale 0 (no effect) to 100 (complete control)

Worked set:
Cn1nc(C(F)(F)F)c(C[S+]([O-])c2cc(F)cc[n+]2[O-])c1Cl (racemic) [Compound 42] ... 80
CCc1cc[n+]([O-])c(S(=O)(=O)Cc2c(C(F)(F)F)nn(C)c2OCC(F)(F)F)c1 [Compound 60] ... 98

## Task Reported Corn plant response rating for CCn1nc(C(F)(F)F)c(CS(=O)(=O)c2cccc[n+]2[O-])c1OCC(F)(F)F [Compound 63] : what is it?
## Result 100

---

Test system: velvetleaf
Experiment: Test A pre-/postemergence greenhouse test
Assay type: in vivo, Abutilon theophrasti
Details: Preemergence, 125 g ai/ha; 0 to 100 scale, 0 no effect, 100 complete control
assay.endpoint: Velvetleaf plant response rating
Returns: the value as a bare number; no unit string appended.

CC(c1c(C(F)(F)F)nn(C)c1Cl)S(=O)(=O)c1cccc[n+]1[O-] (centres unmarked) ... 60
Cn1nc(C(F)(F)F)c(C[S+]([O-])c2cccc[n+]2[O-])c1OCC(F)(F)C(F)(F)F (centres unmarked) ... 0
CCOc1ccc(S(=O)(=O)Cc2c(C(F)(F)F)nn(C)c2OC(F)F)[n+]([O-])c1 ... 0

## Task Given the entry Cc1cc[n+]([O-])c([S+]([O-])Cc2c(C(F)(F)F)nn(C)c2OC(F)F)c1 (centres unmarked) , report its measured Velvetleaf plant response rating.
## Result 30

## Task Look up Velvetleaf plant response rating: Cn1nc(C(F)(F)F)c(C[S+]([O-])c2cc(Cl)cc[n+]2[O-])c1Cl (racemic)
## Result 70

## Task Tell me the measured Velvetleaf plant response rating of CCn1nc(C(F)(F)F)c(CS(=O)(=O)c2cc(C)cc[n+]2[O-])c1OCC(F)(F)F , please.
## Result 50

## Task What value of Velvetleaf plant response rating has been reported for the following compound? CCCc1cc[n+]([O-])c([S+]([O-])Cc2c(C(F)(F)F)nn(C)c2OCC(F)(F)F)c1 (centres unmarked)
## Result 60

## Task What does the record list as Velvetleaf plant response rating for Cc1cc(S(=O)(=O)Cc2c(C(F)(F)F)nn(C)c2OCC(F)(F)F)[n+]([O-])cc1Cl ?
## Result 0
